# folding enthalpy per record follows
assay: folding enthalpy; higher = less favourable; fluorescence melt of hairpins on a sequencing array, two-state fit
assaySetup: sodium 0.088 M
Lab book: enter the figure in kcal/mol, no units written.

{"columns": ["sequenceChain", "folding enthalpy (kcal/mol)"],
 "data": [
  ["GGCGTCGAAAGACGAGCC ((((((....)))..)))", -16.7],
  ["GCGGCCATCCGC ((((....))))", -18.5],
  ["GTACCCGAAAGGGGTAC ((((((....))).)))", -27.8]
]}

INPUT: Look up folding enthalpy: GATCCGTCGCGGATC ((((((...))))))
OUTPUT: -35.8

INPUT: Try this sequence too: GTGCGTTCGAAAGAACAC (((..(((....))))))
OUTPUT: -11.7
